# assayed target: PIM (PIM-1, PIM-2, and/or PIM-3)
# test description: PIM-1, PIM-2 and PIM-3 inhibition, biochemical chemiluminescence assays (Kinase Glo, IC50 determination)
# assay context: Table 1 activity class; PIM refers to PIM-1, PIM-2, and/or PIM-3; read-out: PIM IC50 (Activity B)
measured quantity: IC50

[[record]]
molecule = "O=c1[nH]c(CN2CC3CCC2[C@H]3O)nc2c1oc1ccc(Br)cc12 (some centres unmarked) [Compound 413]"
assayed_target = "PIM (PIM-1, PIM-2, and/or PIM-3)"
endpoint_result = "< 10 µM"

[[record]]
molecule = "CN(C)CCN1CCN(c2nc3c(oc4ccc(Br)cc43)c(=O)[nH]2)CC1 [Compound 227]"
assayed_target = "PIM (PIM-1, PIM-2, and/or PIM-3)"
endpoint_result = "< 10 µM"

[[record]]
molecule = "O=C(Nc1ccc(-c2nc3c(oc4ccc(Br)cc43)c(=O)[nH]2)c(Cl)c1)c1ccc(Br)cn1 [Compound 336]"
assayed_target = "PIM (PIM-1, PIM-2, and/or PIM-3)"
endpoint_result = "< 10 µM"


### Prompt Input O=C(O)C1CN(Cc2nc3c(oc4ccc(Br)cc43)c(=O)[nH]2)C1 [Compound 370] , output reported IC50.
### Response < 10 µM

### Prompt Dear colleague, please send me the reported IC50 for NCCNC(=O)c1ccc(C(=O)Nc2ccc(-c3nc4c(oc5ccc(Br)cc54)c(=O)[nH]3)c(Cl)c2)nc1 [Compound 394] when you can.
### Response < 10 µM

### Prompt For the molecule COc1ccc2oc3c(=O)[nH]c(-c4ccc(NCC5CCNCC5)cc4Cl)nc3c2c1 [Compound 138] , give its reported IC50.
### Response < 10 µM

### Prompt Indicate the recorded IC50 value for this molecule: CC(C)(NCc1nc2c(oc3ccc(Br)cc32)c(=O)[nH]1)C(N)=O [Compound 177]
### Response < 10 µM

### Prompt Specify measured IC50 for O=c1[nH]c([C@@H]2C[C@H](F)CN2)nc2c1oc1ccc(Cl)cc12 [Compound 525] .
### Response < 10 µM

### Prompt For the molecule NCc1cc(Cl)c(-c2nc3c(oc4ccc(Br)cc43)c(=O)[nH]2)cc1F [Compound 211] , give its measured IC50 value.
### Response < 10 µM

### Prompt Quickly give me recorded IC50 for COc1ccc(-c2nc3c(oc4ccc(Br)cc43)c(=O)[nH]2)c(Cl)c1 [Compound 79]
### Response < 10 µM

### Prompt Indicate the recorded IC50 value for this molecule: CCc1nccn1Cc1nc2c(oc3ccc(Br)cc32)c(=O)[nH]1 [Compound 149]
### Response < 10 µM

### Prompt # return recorded IC50 for input O=c1[nH]c(CN2CCC(Cc3ccccc3)CC2)nc2c1oc1ccc(Br)cc12 [Compound 253]
### Response < 10 µM

----------
# assayed target: CK2 (Homo sapiens, UniProt P68400)
# Sequence (P68400 whole entry): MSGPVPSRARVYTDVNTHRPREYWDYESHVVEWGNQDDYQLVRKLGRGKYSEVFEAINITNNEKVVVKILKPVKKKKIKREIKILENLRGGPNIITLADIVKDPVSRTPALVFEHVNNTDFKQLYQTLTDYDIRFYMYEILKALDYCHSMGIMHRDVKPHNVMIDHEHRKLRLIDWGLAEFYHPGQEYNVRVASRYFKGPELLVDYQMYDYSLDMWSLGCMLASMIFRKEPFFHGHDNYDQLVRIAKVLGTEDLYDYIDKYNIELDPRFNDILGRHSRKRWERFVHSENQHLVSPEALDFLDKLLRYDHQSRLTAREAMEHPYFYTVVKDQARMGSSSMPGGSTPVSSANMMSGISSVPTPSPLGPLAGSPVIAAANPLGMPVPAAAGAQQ
# Sequence (P67870 whole entry partner): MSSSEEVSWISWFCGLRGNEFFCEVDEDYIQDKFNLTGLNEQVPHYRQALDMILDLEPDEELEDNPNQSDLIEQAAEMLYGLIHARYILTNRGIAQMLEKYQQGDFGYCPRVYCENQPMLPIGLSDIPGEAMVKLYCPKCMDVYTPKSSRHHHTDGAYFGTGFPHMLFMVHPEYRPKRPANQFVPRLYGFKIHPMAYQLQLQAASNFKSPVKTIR
# test description: CK2 inhibition, biochemical chemiluminescence holoenzyme assay (Kinase Glo, IC50 determination)
# assay context: Table 1 activity class; symbol given only if active; read-out: CK2 IC50 (Activity C)
pIC50: −log10 of the molar value.
measured quantity: pIC50

Consider the worked cases shown below.
[[record]]
compound = "CCC(C)N(C)Cc1nc2c(oc3ccc(Br)cc32)c(=O)[nH]1 (centres unmarked)"
endpoint_result = "> 5.00"

[[record]]
compound = "O=C(Nc1ccc(-c2nc3c(oc4ccc(Br)cc43)c(=O)[nH]2)c(Cl)c1)c1ccco1"
endpoint_result = "> 5.00"

[[record]]
compound = "Cn1nc(OC2CCNCC2)cc1-c1nc2c(oc3ccc(Br)cc32)c(=O)[nH]1"
endpoint_result = "> 5.00"

[[record]]
compound = "O=c1[nH]c(CN2CCNCC2)nc2c1oc1ccc(Br)cc12"
endpoint_result = "> 5.00"

[[record]]
compound = "O=C(NCc1ccccc1Cl)C1(O)CCN(Cc2nc3c(oc4ccc(Br)cc43)c(=O)[nH]2)C1 (centres unmarked)"
endpoint_result = "> 5.00"

[[record]]
compound = "COc1ccccc1CNc1ccc2oc3c(=O)[nH]c(CN4CC[C@H](O)C4)nc3c2c1"
endpoint_result = "> 5.00"

[[record]]
compound = "O=C(c1ccc2[nH]cnc2c1)N1CCC(c2nc3c(oc4ccc(Br)cc43)c(=O)[nH]2)CC1"
endpoint_result = "> 5.00"


// moving on: another record for pIC50
### Prompt Provide measured pIC50 value, entry: "CC(C)(CN1CCCC1)NCc1nc2c(oc3ccc(Br)cc32)c(=O)[nH]1"
### Response > 5.00

----------
# assayed target: CDC7 (Homo sapiens)
# Sequence (O00311 whole entry): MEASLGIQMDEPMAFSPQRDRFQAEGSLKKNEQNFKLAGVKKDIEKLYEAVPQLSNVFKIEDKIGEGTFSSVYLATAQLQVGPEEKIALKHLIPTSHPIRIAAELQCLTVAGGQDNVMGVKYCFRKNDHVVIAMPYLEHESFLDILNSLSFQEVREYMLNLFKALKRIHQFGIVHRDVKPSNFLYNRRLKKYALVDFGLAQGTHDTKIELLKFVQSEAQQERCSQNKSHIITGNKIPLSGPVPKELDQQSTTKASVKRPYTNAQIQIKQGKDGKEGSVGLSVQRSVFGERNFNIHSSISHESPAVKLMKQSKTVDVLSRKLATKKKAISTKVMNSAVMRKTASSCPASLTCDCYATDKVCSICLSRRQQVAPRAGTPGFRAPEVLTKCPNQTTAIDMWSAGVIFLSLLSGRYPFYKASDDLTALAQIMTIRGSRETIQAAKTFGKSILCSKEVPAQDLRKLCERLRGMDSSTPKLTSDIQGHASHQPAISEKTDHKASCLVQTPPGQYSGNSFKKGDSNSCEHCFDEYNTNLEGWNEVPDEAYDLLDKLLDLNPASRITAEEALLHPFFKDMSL
# Sequence (Q9UBU7 whole entry partner): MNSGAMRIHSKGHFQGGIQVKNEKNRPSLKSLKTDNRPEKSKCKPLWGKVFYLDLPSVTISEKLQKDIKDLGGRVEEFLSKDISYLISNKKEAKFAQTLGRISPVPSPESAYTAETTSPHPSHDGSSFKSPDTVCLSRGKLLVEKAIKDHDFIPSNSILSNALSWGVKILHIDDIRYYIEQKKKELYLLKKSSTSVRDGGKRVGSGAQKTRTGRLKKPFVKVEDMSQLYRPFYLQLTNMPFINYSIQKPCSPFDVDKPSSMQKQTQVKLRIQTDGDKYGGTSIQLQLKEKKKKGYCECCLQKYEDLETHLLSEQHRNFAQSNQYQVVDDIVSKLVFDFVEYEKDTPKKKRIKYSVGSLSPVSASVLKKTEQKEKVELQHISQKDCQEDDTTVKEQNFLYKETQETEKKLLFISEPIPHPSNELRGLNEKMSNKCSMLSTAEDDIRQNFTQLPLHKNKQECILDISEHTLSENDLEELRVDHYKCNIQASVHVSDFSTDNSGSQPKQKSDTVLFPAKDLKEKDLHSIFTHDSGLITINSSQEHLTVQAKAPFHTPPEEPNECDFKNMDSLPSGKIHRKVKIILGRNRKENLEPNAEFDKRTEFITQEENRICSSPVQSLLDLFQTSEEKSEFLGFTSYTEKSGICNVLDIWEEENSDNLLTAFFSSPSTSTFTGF
# test description: CDC7 inhibition, biochemical chemiluminescence assay (Kinase Glo, IC50 determination)
# assay context: compounds in Table 1; read-out: CDC7 IC50 value
pIC50: −log10 of the molar value.
Listed next: entries and their corresponding pIC50.

Take a look at these entries with their results.
[[record]]
compound = "O=c1[nH]c(Cc2ccccc2Br)nc2c1oc1ccc(Br)cc12 [Compound 421]"
measured_quantity = "pIC50"
endpoint_result = "> 7.00"

[[record]]
compound = "O=c1[nH]c([C@@H]2C[C@@H](F)CN2)nc2c1oc1ccc(Br)cc12 [Compound 514]"
measured_quantity = "pIC50"
endpoint_result = "> 7.00"


### Prompt Entry CO[C@@H]1CCN(Cc2nc3c(oc4ccc(Br)cc43)c(=O)[nH]2)C1 [Compound 408] needs its pIC50 filled in; supply it.
### Response > 7.00

----------
# assayed target: CK2 (Homo sapiens, UniProt P68400)
# test description: CK2 inhibition, biochemical chemiluminescence holoenzyme assay (Kinase Glo, IC50 determination)
pIC50: −log10 of the molar value.
measured quantity: pIC50

### Prompt Output pIC50 of O=c1[nH]c(CN2C3CCC2CC(O)C3)nc2c1oc1ccc(Br)cc12 (stereo not shown)
### Response > 5.00

----------
Listing of recorded IC50 by entry.
# assayed target: CK2 (Homo sapiens, UniProt P68400)
# test description: CK2 inhibition, biochemical chemiluminescence holoenzyme assay (Kinase Glo, IC50 determination)
# assay context: Table 1 activity class; symbol given only if active; read-out: CK2 IC50 (Activity C)

Field: example entries. Status: answers known.
[[record]]
molecule = "O=C(Nc1ccc(-c2nc3c(oc4ccc(Br)cc43)c(=O)[nH]2)c(Cl)c1)c1ccc(Cl)cc1"
endpoint_result = "< 10 µM"

[[record]]
molecule = "O=c1[nH]c(-c2ccc(NCCC3CCCNC3)cc2Cl)nc2c1oc1ccc(Br)cc12 (stereo not shown)"
endpoint_result = "< 10 µM"


### Prompt Indicate its recorded IC50; the molecule in question is "CCN(CC)CC(=O)N1CCN(c2nc3c(oc4ccc(Br)cc43)c(=O)[nH]2)CC1"
### Response < 10 µM

### Prompt Please report IC50 for the following molecule: "COc1ccccc1CNCc1nc2c(oc3ccc(Br)cc32)c(=O)[nH]1"
### Response < 10 µM
